assay comment: Half life in mouse plasma at 2 uM up to 120 mins by UPLC/MS analysis
Type: ADME, cell-free
measured endpoint: half-life at 2 µM

Consider the reported half-life at 2 µM for these compounds:
CCCCCCNC(=O)n1nnc2ncccc21 : < 0.0833 h
O=C(NCCCCc1ccccc1)n1cnc2ccccc21 : > 2 h
CCCCCCNC(=O)n1cnc2ccccc21 : > 2 h
O=C(NCCCCc1ccccc1)n1nnc2ncccc21 : < 0.0833 h
CCCCCCNC(=O)n1ncc2ccccc21 : > 2 h
O=C(NCCCCc1ccccc1)n1ncc2ccccc21 : > 2 h
Cc1ccccc1CNC(=O)n1c(N)nc2ccccc21 : < 0.0833 h
Cc1cccc(CNC(=O)n2c(N)nc3ccccc32)c1 : < 0.0833 h
O=C(NCCCCc1ccccc1)n1c(=O)n(C(=O)NCCCCc2ccccc2)c2ccccc21 : > 2 h
Cc1ccc(CNC(=O)n2c(N)nc3ccccc32)cc1 : < 0.0833 h

Dear colleague, I am looking for the recorded half-life at 2 µM of the following compound: "O=C(NCCCCc1ccccc1)n1c(=O)[nH]c2ccccc21" > 2 h

What do you get for "COc1nc2ccccc2n1C(=O)NCCCCc1ccccc1" ? > 2 h
